Reported pIC50 values are given for each entry in this list.
experimental-target: muscarinic receptors
protocol-details: Radio ligand binding, displacement of muscarinic agonist 3H-Oxotremorine-M (3H-OXO-M), rat cerebral cortex membranes
Parameters: species or system Hooded Lister rats
measurement-parameters: 2 nM 3H-OXO-M, 2 mM magnesium chloride, tris pH 7.7, 37° C., 30 min
Structures can show the parent of a compound that is named as a salt.
Bear in mind: pIC50 is minus log10 of a mol/L concentration; give just that figure.

Before answering, review these 5 worked examples.
1) Brc1nnn(C2CN3CCC2CC3)n1 (racemic) [E40, oxalate salt]; 7.71
2) Cc1nnn([C@@H]2CN3CC[C@@H]2C3)n1 (relative stereo) [E20, hydrochloride salt]; 8.35
3) Brc1nnn(C23CCCN(CC2)C3)n1 (racemic); 8.19
4) Cc1ncn(C2CN3CCC2CC3)n1 (racemic) [E6, dihydrochloride salt]; 7.17
5) c1nnn([C@@H]2CN3CC[C@@H]2C3)n1 (relative stereo) [E19, hydrochloride salt]; 7.52

What value of pIC50 on muscarinic receptors does Nc1ncn(C23CCCN(CC2)C3)n1 (racemic) have?
7.71

Request: Nc1ncn(C2CN3CCC2CC3)n1 (racemic)
6.74

###

experimental-target: muscarinic receptors
protocol-details: Radio ligand binding, displacement of muscarinic agonist 3H-Oxotremorine-M (3H-OXO-M), rat cerebral cortex membranes
Design: species or system Hooded Lister rats
measurement-parameters: 2 nM 3H-OXO-M, 2 mM magnesium chloride, tris pH 7.7, 37° C., 30 min
Counter-ions that a name gives are not always drawn.
Reported pIC50 values are given for each entry in this list.
Bear in mind: pIC50 is minus log10 of a mol/L concentration; give just that figure.

Before answering, review these 2 worked examples.
1. c1cnn(C2CN3CCC2CC3)c1 (racemic) [E2, dihydrochloride salt]; 5.90
2. c1nnn(C23CCCN(CC2)C3)n1 (stereo not drawn); 7.66

May I ask what pIC50 has been recorded for Cc1nnnn1[C@@H]1CN2CC[C@@H]1C2 (relative stereo) [E21, hydrochloride salt] ?
5.18

Request: Clc1nnn(C2CN3CCC2CC3)n1 (racemic) [E44, oxalate salt]
7.50

Request: Cc1ccn(C2CN3CCC2CC3)n1 (racemic) [E1, oxalate salt]
6.43

Request: CCc1nnn([C@@H]2CN3CC[C@@H]2C3)n1 (relative stereo) [E23, hydrochloride salt]
6.49

Request: Nc1nnnn1C12CCCN(CC1)C2 (racemic)
5.85

Request: c1ncn(C23CCN(CC2)C3)n1 [E51, oxalate salt]
7.78

Request: c1ncn([C@@H]2CN3CC[C@@H]2C3)n1 (relative stereo) [E9, dihydrochloride salt]
7.32

###

experimental-target: muscarinic receptors
protocol-details: Radio ligand binding, displacement of muscarinic agonist 3H-Oxotremorine-M (3H-OXO-M), rat cerebral cortex membranes
Set-up: species or system Hooded Lister rats
measurement-parameters: 2 nM 3H-OXO-M, 2 mM magnesium chloride, tris pH 7.7, 37° C., 30 min
Structures can show the parent of a compound that is named as a salt.
value-kind: IC50 (nM)
Give the value, in units of nM, as a plain number.

1. Clc1nnn([C@@H]2CN3CC[C@@H]2C3)n1 (relative stereo) [E42, oxalate salt]; 7.6
2. Brc1nnn([C@@H]2CN3CC[C@@H]2C3)n1 (relative stereo) [E41, oxalate salt]; 6.5
3. Nc1ncnn1C1CN2CCC1CC2 (racemic) [E39, dihydrochloride salt]; 14500
4. Brc1ncn(C2CN3CCC2CC3)n1 (racemic) [E47, oxalate salt]; 100

May I ask what IC50 has been recorded for c1nnnn1C1CN2CCC1CC2 (racemic) [E16, hydrochloride salt] ?
2750

Request: Nc1nnn([C@H]2C[C@@H]3CCN(C3)C2)n1 (relative stereo) [E17, hydrochloride]
170

Request: Cc1ncn([C@@H]2CN3CC[C@@H]2C3)n1 (relative stereo) [E8, dihydrochloride salt]
22

Request: Cc1ncn(C23CCCN(CC2)C3)n1 (racemic) [E28, dihydrochloride salt]
17

Request: Nc1nnn(C2CN3CCC2CC3)n1 (racemic)
38

Request: Nc1ncnn1C12CCCN(CC1)C2 (racemic)
130

Request: Brc1ncn([C@@H]2CN3CC[C@@H]2C3)n1 (relative stereo) [E54, oxalate salt]
32

Request: c1nnn(C2CN3CCC2CC3)n1 (racemic) [E15, hydrochloride salt]
242

Request: Cc1cnn(C2CN3CCC2CC3)n1 (racemic) [E12, hydrochloride]
260

Request: Cc1ncn(C2=CN3CCC2CC3)n1 [E5, dihydrochloride]
651

Request: Cc1cnn([C@@H]2CN3CC[C@@H]2C3)n1 (relative stereo) [E25, hydrochloride salt]
180

###

experimental-target: muscarinic receptors
protocol-details: Radio ligand binding, displacement of muscarinic antagonist 3H-Quinuclidinyl Benzilate (3H-QNB), rat cerebral cortex membranes
Parameters: species or system Hooded Lister rats
measurement-parameters: 0.27 nM 3H-QNB, tris pH 7.7, 37° C., 30 min
Structures can show the parent of a compound that is named as a salt.
Reported IC50 values are given for each entry in this list.
Give the value, in units of µM, as a plain number.

1) Cc1ncn(C2=CN3CCC2CC3)n1 [E5, dihydrochloride]; 30.3

May I ask what IC50 has been recorded for Nc1nnn([C@@H]2CN3CC[C@@H]2C3)n1 (relative stereo) ?
4.3

Request: Brc1ncn(C2CN3CCC2CC3)n1 (racemic) [E47, oxalate salt]
3.3

###

experimental-target: muscarinic receptors
protocol-details: Radio ligand binding, displacement of muscarinic agonist 3H-Oxotremorine-M (3H-OXO-M), rat cerebral cortex membranes
Design: species or system Hooded Lister rats
measurement-parameters: 2 nM 3H-OXO-M, 2 mM magnesium chloride, tris pH 7.7, 37° C., 30 min
Counter-ions that a name gives are not always drawn.
value-kind: IC50 (nM)
Give the value, in units of nM, as a plain number.

Before answering, review these 3 worked examples.
1) Nc1nnn(C23CCCN(CC2)C3)n1 (racemic); 7.5
2) c1ncn(C2CN3CCC2CC3)n1 (racemic) [E7, dihydrochloride salt]; 475
3) Ic1nnn([C@@H]2CN3CC[C@@H]2C3)n1 (relative stereo) [E43, oxalate salt]; 42

May I ask what IC50 has been recorded for Cc1nnn(C23CCCN(CC2)C3)n1 (racemic) ?
11.5

Request: c1nnn([C@H]2C[C@@H]3CCN(C3)C2)n1 (relative stereo) [E22, hydrochloride salt]
153

Request: Cc1nnn(C2CN3CCC2CC3)n1 (racemic) [E10, hydrochloride salt]
30

Request: c1ncn(C23CCCN(CC2)C3)n1 (racemic) [E27, dihydrochloride salt]
12

Request: Nc1nnn([C@@H]2CN3CC[C@@H]2C3)n1 (relative stereo)
2.62

###

Reported IC50 values are given for each entry in this list.
experimental-target: muscarinic receptors
protocol-details: Radio ligand binding, displacement of muscarinic agonist 3H-Oxotremorine-M (3H-OXO-M), rat cerebral cortex membranes
Design: species or system Hooded Lister rats
measurement-parameters: 2 nM 3H-OXO-M, 2 mM magnesium chloride, tris pH 7.7, 37° C., 30 min
Where a name gives a salt, the structure may show the parent alone.
Give the value, in units of nM, as a plain number.

Before answering, review these 2 worked examples.
1) Clc1ncn(C2CN3CCC2CC3)n1 (racemic) [E48, oxalate salt]; 195
2) N#Cc1nnn(C2CN3CCC2CC3)n1 (racemic) [E46, oxalate salt]; 1400

May I ask what IC50 has been recorded for Clc1nnn(C23CCCN(CC2)C3)n1 (racemic) [E49, oxalate salt] ?
3.2

Request: c1nnnn1C12CCCN(CC1)C2 (racemic) [E30]
1400

###

experimental-target: muscarinic receptors
protocol-details: Radio ligand binding, displacement of muscarinic antagonist 3H-Quinuclidinyl Benzilate (3H-QNB), rat cerebral cortex membranes
Parameters: species or system Hooded Lister rats
measurement-parameters: 0.27 nM 3H-QNB, tris pH 7.7, 37° C., 30 min
Counter-ions that a name gives are not always drawn.
value-kind: pIC50
Bear in mind: pIC50 is minus log10 of a mol/L concentration; give just that figure.

Before answering, review these 3 worked examples.
1) Cc1ncn(C2CN3CCC2CC3)n1 (racemic) [E6, dihydrochloride salt]; 5.25
2) c1cnn(C2CN3CCC2CC3)c1 (racemic) [E2, dihydrochloride salt]; 4.46
3) c1ncn(C2CN3CCC2CC3)n1 (racemic) [E7, dihydrochloride salt]; 4.36

May I ask what pIC50 has been recorded for Brc1nnn(C2CN3CCC2CC3)n1 (racemic) [E40, oxalate salt] ?
6.31

Request: Brc1nnn(C23CCCN(CC2)C3)n1 (racemic)
6.39

Request: c1nnn(C23CCCN(CC2)C3)n1 (stereo not shown)
4.89

Request: N#Cc1nnn(C2CN3CCC2CC3)n1 (racemic) [E46, oxalate salt]
5.11

###

experimental-target: muscarinic receptors
protocol-details: Radio ligand binding, displacement of muscarinic antagonist 3H-Quinuclidinyl Benzilate (3H-QNB), rat cerebral cortex membranes
Set-up: species or system Hooded Lister rats
measurement-parameters: 0.27 nM 3H-QNB, tris pH 7.7, 37° C., 30 min
pIC50: −log10 of the molar value. Counter-ions that a name gives are not always drawn.
Everything with pIC50 lower than 5 is rule not met; everything else, including exactly 5, is rule met.

1. Nc1ncn(C23CCCN(CC2)C3)n1 (racemic); rule met
2. c1ncn([C@@H]2CN3CC[C@@H]2C3)n1 (relative stereo) [E9, dihydrochloride salt]; rule not met
3. Cc1ncn([C@@H]2CN3CC[C@@H]2C3)n1 (relative stereo) [E8, dihydrochloride salt]; rule met
4. Cc1cnn([C@@H]2CN3CC[C@@H]2C3)n1 (relative stereo) [E25, hydrochloride salt]; rule not met
5. Cc1ncn(C23CCCN(CC2)C3)n1 (racemic) [E28, dihydrochloride salt]; rule met
6. Cc1nnn([C@@H]2CN3CC[C@@H]2C3)n1 (relative stereo) [E20, hydrochloride salt]; rule met
7. Cc1ccn(C2CN3CCC2CC3)n1 (racemic) [E1, oxalate salt]; rule met
8. Clc1nnn(C23CCCN(CC2)C3)n1 (racemic) [E49, oxalate salt]; rule met
9. Nc1ncnn1C12CCCN(CC1)C2 (racemic); rule not met
10. CCc1nnn([C@@H]2CN3CC[C@@H]2C3)n1 (relative stereo) [E23, hydrochloride salt]; rule met

Form field: pIC50 at least 5? Entry: Nc1ncn(C2CN3CCC2CC3)n1 (racemic)
rule not met

Request: Clc1nnn([C@@H]2CN3CC[C@@H]2C3)n1 (relative stereo) [E42, oxalate salt]
rule met

Request: c1ncn(C23CCN(CC2)C3)n1 [E51, oxalate salt]
rule not met

Request: Cc1cnn(C2CN3CCC2CC3)n1 (racemic) [E12, hydrochloride]
rule met

Request: Nc1nnn(C23CCCN(CC2)C3)n1 (racemic)
rule met

Request: Cc1nnn(C2CN3CCC2CC3)n1 (racemic) [E10, hydrochloride salt]
rule met

Request: Clc1nnn(C2CN3CCC2CC3)n1 (racemic) [E44, oxalate salt]
rule met

Request: c1ncn(C23CCCN(CC2)C3)n1 (racemic) [E27, dihydrochloride salt]
rule met

Request: c1nnn(C2CN3CCC2CC3)n1 (racemic) [E15, hydrochloride salt]
rule not met

Request: c1nnnn1C1CN2CCC1CC2 (racemic) [E16, hydrochloride salt]
rule not met

Request: c1nnn([C@@H]2CN3CC[C@@H]2C3)n1 (relative stereo) [E19, hydrochloride salt]
rule not met

Request: Cc1nnnn1[C@@H]1CN2CC[C@@H]1C2 (relative stereo) [E21, hydrochloride salt]
rule not met

Request: c1nnn([C@H]2C[C@@H]3CCN(C3)C2)n1 (relative stereo) [E22, hydrochloride salt]
rule not met

Request: Ic1nnn([C@@H]2CN3CC[C@@H]2C3)n1 (relative stereo) [E43, oxalate salt]
rule met

Request: Brc1ncn([C@@H]2CN3CC[C@@H]2C3)n1 (relative stereo) [E54, oxalate salt]
rule met

Request: Nc1nnn([C@H]2C[C@@H]3CCN(C3)C2)n1 (relative stereo) [E17, hydrochloride]
rule met

Origin of the recorded values: patent US5981545A
